The compounds listed here are annotated with their TGI.
- System: CAKI-1 renal
- Protocol Description: NCI tumour cell line growth inhibition, 48 h
Where a SMILES comes first, the peptide text is derived from it. The star is where a group is joined. Bn = c1ccc(C*)cc1

[
  {
    "Compound": "COC(C(=O)[C@@H](O)[C@@H](C)O)[C@@H]1Cc2cc3cc(O[C@H]4C[C@@H](O[C@H]5C[C@@H](O)[C@H](O)C(C)O5)[C@H](O)C(C)O4)c(C)c(O)c3c(O)c2C(=O)[C@H]1O[C@H]1C[C@@H](O[C@H]2C[C@@H](O[C@H]3C[C@@H](O)[C@H](OC)C(C)O3)[C@@H](O)C(C)O2)[C@H](O)C(C)O1 (some centres not stated)",
    "Target Of Assay": "CAKI-1 renal",
    "Measured": "> 33.3 µM"
  },
  {
    "Compound": "Nc1nc(N)nc(CCCc2nc(N)nc(N)n2)n1",
    "Target Of Assay": "CAKI-1 renal",
    "Measured": "> 100 µM"
  },
  {
    "Compound": "CC1(C)[C@@H](Cn2cnc3c(Cl)nc(N)nc32)CC[C@@]1(C)CO",
    "Target Of Assay": "CAKI-1 renal",
    "Measured": "> 100 µM"
  }
]

Which TGI value belongs to COC(=O)C(CC(C)C)NC(=O)C(N)Cc1ccc(OCc2ccccc2)cc1 (configuration not stated) (H-Tyr(Bn)-Leu-OMe; configuration not given here) ? > 10 µM

Please look up its TGI: CC1C(c2ccc3c(c2)OCO3)c2cc3c(cc2OC1N1CCOCC1)OCO3 (configuration not stated) > 82.7 µM

Reported TGI for "CCOC(CN(C)C(=S)Nc1cccc2ccccc12)OCC" : what is it? > 10 µM

# lookup: TGI of CCOC(=O)C(C)c1nc2c(Cl)c3ncccc3cc2[nH]c1=O (configuration not stated) > 100 µM
